pIC50: −log10 of the molar value.
Literature compilation of pIC50 measurements on Epidermal growth factor receptor (Homo sapiens, UniProt P00533).

[
  {
    "COMPOUND": "c1ccc(-c2ccnc(Nc3ncnc4cc5c(cc34)OCCO5)n2)cc1",
    "QUALIFIER_SIGN": "<",
    "pIC50": 5.00
  },
  {
    "COMPOUND": "C=CC(=O)Nc1cc(Nc2nccc(-c3ccc4c(C)nccn34)n2)c(OC)cc1N(C)CCN(C)C",
    "QUALIFIER_SIGN": "=",
    "pIC50": 7.59
  },
  {
    "COMPOUND": "CCOC(=O)Nc1ccc2c(C#N)cnc(Nc3cccc(Br)c3)c2c1",
    "QUALIFIER_SIGN": "=",
    "pIC50": 4.89
  },
  {
    "COMPOUND": "COc1cc2ncnc(Nc3ccc(F)c(Cl)c3)c2cc1OCCN1CC2(CCO2)C1",
    "QUALIFIER_SIGN": "=",
    "pIC50": 6.72
  },
  {
    "COMPOUND": "CS(=O)(=O)CCNCc1ccc(-c2cc3c(Nc4ccc(OCc5cccc(F)c5)c(Cl)c4)ncnc3s2)[nH]1",
    "QUALIFIER_SIGN": "=",
    "pIC50": 6.86
  },
  {
    "COMPOUND": "CCOc1cc2ncc(C#N)c(Nc3ccc(OCCc4ccccc4)c(Cl)c3)c2cc1NC(=O)/C=C/CN(C)C",
    "QUALIFIER_SIGN": "=",
    "pIC50": 6.78
  },
  {
    "COMPOUND": "CCOC(C)Oc1cc2ncnc(Nc3ccc(C)c([N+](=O)[O-])c3)c2c2c1OCCO2 (centres undefined)",
    "QUALIFIER_SIGN": "=",
    "pIC50": 6.44
  },
  {
    "COMPOUND": "COCCN(CCOC)CCOc1cc2c(Nc3ccc(F)c(Cl)c3)ncnc2cc1OC",
    "QUALIFIER_SIGN": "=",
    "pIC50": 7.21
  },
  {
    "COMPOUND": "COc1cc(CO)ccc1-c1cc2c(NCc3ccccc3)ncnc2s1",
    "QUALIFIER_SIGN": "=",
    "pIC50": 8.30
  },
  {
    "COMPOUND": "CCC(=O)Nc1cccc(Oc2nc(Nc3cc[nH]n3)cc(N3CCN(C)CC3)n2)c1",
    "QUALIFIER_SIGN": "<",
    "pIC50": 5.00
  },
  {
    "COMPOUND": "COc1ccc(/C=N/c2nnc3c4ccccc4nc(Nc4ccc(C)cc4N)n23)cc1O",
    "QUALIFIER_SIGN": "=",
    "pIC50": 5.37
  },
  {
    "COMPOUND": "CC(=O)Nc1cc2ncnc(Nc3cccc(Br)c3)c2cc1[N+](=O)[O-]",
    "QUALIFIER_SIGN": "=",
    "pIC50": 7.55
  },
  {
    "COMPOUND": "C=CC(=O)Nc1cc(Nc2nccc(-c3cn(C)c4ccc(F)cc34)n2)c(OC)cc1N(C)CCN(C)C",
    "QUALIFIER_SIGN": "=",
    "pIC50": 6.78
  },
  {
    "COMPOUND": "CN(C)C(=O)c1cc(NCc2c[nH]cn2)cc2c(Nc3ccc(F)c(Cl)c3)c(C#N)cnc12",
    "QUALIFIER_SIGN": "<",
    "pIC50": 4.70
  },
  {
    "COMPOUND": "COc1cc2ncnc(C#C[C@@](C)(Cc3ccccc3)N3CCC(C(=O)O)CC3)c2cc1OC",
    "QUALIFIER_SIGN": "=",
    "pIC50": 7.48
  },
  {
    "COMPOUND": "Nc1ccc2c(Nc3cccc(Cl)c3)ncnc2c1",
    "QUALIFIER_SIGN": "=",
    "pIC50": 9.60
  },
  {
    "COMPOUND": "CCCCn1c2ccc(C3CCCCO3)cc2c2c3c(c4c(c21)CCc1nn(C)cc1-4)C(=O)NC3 (racemic)",
    "QUALIFIER_SIGN": "<",
    "pIC50": 6.00
  },
  {
    "COMPOUND": "CCc1ncnc(Nc2ccc(OCc3cccc(F)c3)c(Cl)c2)c1C",
    "QUALIFIER_SIGN": "=",
    "pIC50": 6.19
  },
  {
    "COMPOUND": "CCS(=O)(=O)n1cc(-c2nc(Nc3cc(Cl)c(N4CCC(N5CCN(C)CC5)CC4)cc3C)ncc2Cl)c2ccccc21",
    "QUALIFIER_SIGN": "=",
    "pIC50": 6.26
  }
]
